target: GluA1o-γ8 (GRIA1o-CACNG8 fusion construct; TARP γ8 dependent AMPA receptor) (Homo sapiens (Human), UniProt P42261+Q8WXS5); test: Calcium flux assay (FLIPR), inhibition of glutamate response of GluA1o-γ8 channel; type: cell-based; conditions: HEK293 cells stably expressing GRIA1o-CACNG8 fusion; 15 μM glutamate; pIC50 = negative log of IC50 in molar; read-out: GluR1-γ8 (pIC50) (converted)
Sequence (P42261 other isoform, or with tags, fused parts or gaps): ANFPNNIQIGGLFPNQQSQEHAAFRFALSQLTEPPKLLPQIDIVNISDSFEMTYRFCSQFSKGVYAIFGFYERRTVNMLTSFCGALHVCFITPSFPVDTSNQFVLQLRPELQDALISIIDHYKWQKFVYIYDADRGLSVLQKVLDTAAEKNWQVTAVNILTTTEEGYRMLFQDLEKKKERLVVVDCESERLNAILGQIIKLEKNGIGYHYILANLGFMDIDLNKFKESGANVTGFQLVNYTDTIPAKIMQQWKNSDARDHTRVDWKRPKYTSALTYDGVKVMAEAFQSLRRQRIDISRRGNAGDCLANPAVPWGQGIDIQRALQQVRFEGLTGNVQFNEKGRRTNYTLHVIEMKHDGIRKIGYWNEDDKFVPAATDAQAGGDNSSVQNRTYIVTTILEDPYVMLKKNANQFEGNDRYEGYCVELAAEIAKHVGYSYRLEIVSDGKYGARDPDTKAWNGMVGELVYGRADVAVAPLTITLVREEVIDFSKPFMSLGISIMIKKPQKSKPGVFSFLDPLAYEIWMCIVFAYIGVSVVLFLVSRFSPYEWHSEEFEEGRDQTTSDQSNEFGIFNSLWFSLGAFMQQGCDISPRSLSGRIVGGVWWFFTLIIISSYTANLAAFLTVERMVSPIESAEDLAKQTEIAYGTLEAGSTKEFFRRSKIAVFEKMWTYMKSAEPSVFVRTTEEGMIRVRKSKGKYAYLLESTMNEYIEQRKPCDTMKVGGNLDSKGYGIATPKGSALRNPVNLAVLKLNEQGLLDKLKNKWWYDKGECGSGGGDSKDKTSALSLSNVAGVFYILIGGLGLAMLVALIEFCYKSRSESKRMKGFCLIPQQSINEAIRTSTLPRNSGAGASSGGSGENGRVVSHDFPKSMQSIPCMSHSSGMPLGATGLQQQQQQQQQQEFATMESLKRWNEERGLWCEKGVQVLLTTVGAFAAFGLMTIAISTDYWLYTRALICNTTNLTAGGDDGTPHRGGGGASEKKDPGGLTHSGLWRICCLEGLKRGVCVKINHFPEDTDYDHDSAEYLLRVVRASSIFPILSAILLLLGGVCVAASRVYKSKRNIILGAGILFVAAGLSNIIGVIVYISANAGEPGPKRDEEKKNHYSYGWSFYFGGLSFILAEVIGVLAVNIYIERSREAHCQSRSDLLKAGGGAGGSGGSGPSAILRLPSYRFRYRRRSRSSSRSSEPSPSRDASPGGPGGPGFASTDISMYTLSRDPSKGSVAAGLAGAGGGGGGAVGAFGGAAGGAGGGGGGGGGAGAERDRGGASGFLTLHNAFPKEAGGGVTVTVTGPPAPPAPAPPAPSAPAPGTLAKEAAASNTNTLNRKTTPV
assay_metric: IC50 (nM)
// units = nM; emit number, no label

Please give the measured IC50 for this compound: CN(c1nccn2c(-c3ccc4c(c3)CC(=O)N4)c(-c3ccc(F)cc3)nc12)C1CC1
5.01

Please give the measured IC50 for this compound: O=C1Cc2cc(-c3c(-c4ccc(F)cc4)nc4c(N5CCC6(CC5)OCCO6)nccn34)ccc2N1
0.2

Please give the measured IC50 for this compound: CC1(O)CCN(c2nccn3c(-c4ccc5c(c4)CC(=O)N5)c(-c4ccc(F)cc4)nc23)CC1
0.1

Please give the measured IC50 for this compound: COc1nccc2c(-c3ccc4c(c3)CC(=O)N4)c(-c3ccccc3)nn12
398
